System tested: T1, formyl peptide receptor 2 (FPR2) (UniProt P25090 1-351, limits assumed)
T1 sequence (looked up): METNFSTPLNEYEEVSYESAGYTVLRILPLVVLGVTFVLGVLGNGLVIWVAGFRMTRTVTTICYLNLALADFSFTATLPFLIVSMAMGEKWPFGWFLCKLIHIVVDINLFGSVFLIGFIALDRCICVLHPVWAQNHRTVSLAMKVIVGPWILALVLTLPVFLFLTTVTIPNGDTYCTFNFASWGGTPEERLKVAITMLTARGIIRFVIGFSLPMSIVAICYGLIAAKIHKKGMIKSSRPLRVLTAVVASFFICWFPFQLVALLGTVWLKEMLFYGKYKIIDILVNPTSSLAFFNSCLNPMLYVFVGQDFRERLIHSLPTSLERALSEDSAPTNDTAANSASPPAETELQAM
Procedure text: cell-based or functional assay
Reported property: EC50 for [Ca2+]

HWKYKYM (HELM PEPTIDE1{[CCCC(=O)[*:2]].H.W.K.Y.K.Y.[dM].[am]}$$$$V2.0; SMILES CCCC(=O)N[C@@H](Cc1c[nH]cn1)C(=O)N[C@@H](Cc1c[nH]c2ccccc12)C(=O)N[C@@H](CCCCN)C(=O)N[C@@H](Cc1ccc(O)cc1)C(=O)N[C@@H](CCCCN)C(=O)N[C@@H](Cc1ccc(O)cc1)C(=O)N[C@H](CCSC)C(N)=O) [peptide of SEQ ID NO 37] | < 10 nM

Consider the additional binder presented here.
QUERY: // query EC50 for [Ca2+] value for entry HKYKPM (HELM PEPTIDE1{[ac].H.K.Y.K.P.[dM].[am]}$$$$V2.0; SMILES CSCC[C@@H](NC(=O)[C@@H]1CCCN1C(=O)[C@H](CCCCN)NC(=O)[C@H](Cc1ccc(O)cc1)NC(=O)[C@H](CCCCN)NC(=O)[C@H](Cc1c[nH]cn1)NC(C)=O)C(N)=O) [peptide of SEQ ID NO 147]
RESULT: < 10 nM
